System: DNA
Protocol text: Binding affinity to calf thymus DNA in sodium cacodylate buffer assessed as melting temperature at compound/DNA ratio 0.2 at pH 7
Assay type: nucleic-acid assay
Protocol conditions: Bos taurus
API: label(entry) gives true if the entry's ΔTm is strictly smaller than 2 °C; on equality or larger values it gives false.

**Query** Identify whether the molecule `COC(=O)c1cc2sc(-c3nc4cc(C(=N)NC(C)C)ccc4[nH]3)cc2c2ccccc12` records ΔTm below 2 °C.
**Result** false

Further cases:
**Query** Identify whether the molecule `COC(=O)/C(=C/c1ccc(-c2nc3cc(C(=N)NC(C)C)ccc3[nH]2)o1)c1ccccc1` records ΔTm below 2 °C.
**Result** true

**Query** Identify whether the molecule `CCOC(=O)c1cc2oc(-c3nc4cc(C(=N)NC(C)C)ccc4[nH]3)cc2c2cc(C#N)ccc12` records ΔTm below 2 °C.
**Result** true

**Query** Identify whether the molecule `COC(=O)c1cc2oc(-c3nc4cc(C(=N)NC(C)C)ccc4[nH]3)cc2c2ccccc12` records ΔTm below 2 °C.
**Result** false

**Query** Identify whether the molecule `COC(=O)/C(=C/c1ccc(-c2nc3cc(C(=N)NC(C)C)ccc3[nH]2)s1)c1ccccc1` records ΔTm below 2 °C.
**Result** false

**Query** Identify whether the molecule `CCOC(=O)/C(=C/c1ccc(-c2nc3cc(C(=N)NC(C)C)ccc3[nH]2)o1)c1ccc(C#N)cc1` records ΔTm below 2 °C.
**Result** true

====

For each of the compounds below, state its pIC50.
Tested on: MIA PaCa-2
Protocol text: Antiproliferative activity against human MIAPaCa2 cells after 72 hrs by MTT assay
Format: functional, cell-based
Protocol conditions: MIA PaCa-2, 72 h
One number for each entry, as −log10 of the molar value.

The recorded pIC50 for `COC(=O)/C(=C/c1ccc(-c2nc3cc(C(=N)NC(C)C)ccc3[nH]2)s1)c1ccccc1` is 4.89

The recorded pIC50 for `CCOC(=O)c1cc2oc(-c3nc4cc(C(=N)NC(C)C)ccc4[nH]3)cc2c2cc(C#N)ccc12` is 4.21

The recorded pIC50 for `COC(=O)c1cc2sc(-c3nc4cc(C(=N)NC(C)C)ccc4[nH]3)cc2c2ccccc12` is 4.80

The recorded pIC50 for `COC(=O)c1cc2oc(-c3nc4cc(C(=N)NC(C)C)ccc4[nH]3)cc2c2ccccc12` is 4.68

The recorded pIC50 for `COC(=O)/C(=C/c1ccc(-c2nc3cc(C(=N)NC(C)C)ccc3[nH]2)o1)c1ccccc1` is 4.72

Further cases:
The recorded pIC50 for `CCOC(=O)/C(=C/c1ccc(-c2nc3cc(C(=N)NC(C)C)ccc3[nH]2)o1)c1ccc(C#N)cc1` is 4.68

====

For each of the molecules below, state its ΔTm.
Tested on: DNA
Protocol text: Binding affinity to calf thymus DNA in sodium cacodylate buffer assessed as melting temperature at compound/DNA ratio 0.1 at pH 7
Assay type: nucleic-acid assay
Protocol conditions: Bos taurus
Numbers only, in °C.

Example entries begin here.
Reading of ΔTm for `COC(=O)/C(=C/c1ccc(-c2nc3cc(C(=N)NC(C)C)ccc3[nH]2)o1)c1ccccc1` with DNA: 0

Reading of ΔTm for `COC(=O)/C(=C/c1ccc(-c2nc3cc(C(=N)NC(C)C)ccc3[nH]2)s1)c1ccccc1` with DNA: 1.7

Reading of ΔTm for `CCOC(=O)c1cc2oc(-c3nc4cc(C(=N)NC(C)C)ccc4[nH]3)cc2c2cc(C#N)ccc12` with DNA: 1

Reading of ΔTm for `CCOC(=O)/C(=C/c1ccc(-c2nc3cc(C(=N)NC(C)C)ccc3[nH]2)o1)c1ccc(C#N)cc1` with DNA: 0.6

Batch lookup, ΔTm per entry.
1. COC(=O)c1cc2sc(-c3nc4cc(C(=N)NC(C)C)ccc4[nH]3)cc2c2ccccc12
2. COC(=O)c1cc2oc(-c3nc4cc(C(=N)NC(C)C)ccc4[nH]3)cc2c2ccccc12

**Result**
[3.9, 1.8]

src = ChEMBL document CHEMBL1154473
